biological target: Fuc(a1-2)Gal(b1-4)GlcNAc(b1-2)Man(a1-3)[Fuc(a1-2)Gal(b1-4)GlcNAc(b1-2)Man(a1-6)]Man(b1-4)GlcNAc(b1-4)[Fuc(a1-6)]GlcNAc; test: glycan array binding signal (z-score within array); higher = stronger binding; settings: glycan notation: IUPAC condensed, linker removed
The entries come from a sample that favours the strongest signals as a whole.
quantity.name: glycan array binding signal (z-score)
Reply briefly: the number, and no unit.

Known results for binders:
[
  {
    "binder": "Gal 4 (Homo sapiens), Q8K419 (protein) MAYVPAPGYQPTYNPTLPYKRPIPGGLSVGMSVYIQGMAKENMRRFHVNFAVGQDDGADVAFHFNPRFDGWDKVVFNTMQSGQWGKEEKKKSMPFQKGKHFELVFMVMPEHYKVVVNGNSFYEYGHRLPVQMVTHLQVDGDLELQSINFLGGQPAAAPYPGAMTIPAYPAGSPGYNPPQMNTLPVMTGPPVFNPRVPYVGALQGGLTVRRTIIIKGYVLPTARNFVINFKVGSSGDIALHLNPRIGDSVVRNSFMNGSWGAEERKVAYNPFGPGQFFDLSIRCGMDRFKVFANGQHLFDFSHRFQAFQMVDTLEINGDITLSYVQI",
    "recorded.measurement": -0.202
  },
  {
    "binder": "Mermaid1 (Stilbonema majum) (protein) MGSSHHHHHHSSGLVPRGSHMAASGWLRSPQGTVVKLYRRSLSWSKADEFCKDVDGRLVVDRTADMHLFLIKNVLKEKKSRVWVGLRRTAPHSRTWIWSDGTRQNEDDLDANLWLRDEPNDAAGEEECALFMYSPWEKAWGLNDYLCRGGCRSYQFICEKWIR",
    "recorded.measurement": 3.06
  },
  {
    "binder": "Gal 9 (Homo sapiens), O00182 (protein) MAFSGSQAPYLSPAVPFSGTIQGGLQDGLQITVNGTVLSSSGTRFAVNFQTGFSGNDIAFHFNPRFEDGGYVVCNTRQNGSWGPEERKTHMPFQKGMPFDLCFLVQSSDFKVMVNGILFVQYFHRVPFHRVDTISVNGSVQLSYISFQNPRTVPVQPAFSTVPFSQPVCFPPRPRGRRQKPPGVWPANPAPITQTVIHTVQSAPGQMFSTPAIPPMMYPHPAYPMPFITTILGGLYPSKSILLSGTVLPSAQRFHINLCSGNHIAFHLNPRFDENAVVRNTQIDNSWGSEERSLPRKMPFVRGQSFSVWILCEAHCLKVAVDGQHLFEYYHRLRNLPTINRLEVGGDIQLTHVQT",
    "recorded.measurement": -0.322
  },
  {
    "binder": "rCNL (Clitocybe nebularis), B2ZRS9 (protein) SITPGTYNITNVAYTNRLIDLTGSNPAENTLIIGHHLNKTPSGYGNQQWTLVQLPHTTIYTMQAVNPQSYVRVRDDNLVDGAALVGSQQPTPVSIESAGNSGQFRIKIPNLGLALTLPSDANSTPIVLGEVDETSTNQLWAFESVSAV",
    "recorded.measurement": -0.116
  }
]

Attention now turns to another entry.
Q) Fill in the blank: the reported glycan array binding signal (z-score) of LgFlo1 (Saccharomyces pastorianus), B3IUA8 (protein) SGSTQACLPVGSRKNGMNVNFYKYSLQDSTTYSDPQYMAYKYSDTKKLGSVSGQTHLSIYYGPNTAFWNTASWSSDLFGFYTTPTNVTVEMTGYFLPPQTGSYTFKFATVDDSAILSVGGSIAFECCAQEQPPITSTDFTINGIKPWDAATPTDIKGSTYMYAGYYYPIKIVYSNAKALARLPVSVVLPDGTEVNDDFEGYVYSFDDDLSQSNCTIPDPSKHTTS is ____.
A) 0.313

Data origin: the supplement of paper PMC8728848
